Where do these numbers come from? They come from patent US12441703B2.

target: human NaV 1.8 (Homo sapiens, UniProt Q9Y5Y9); test: E-VIPR assay for detecting and measuring NaV inhibition properties; format: cell-based; settings: E-VIPR assay conducted in the presence of human serum; HEK cells expressing truncated human NaV 1.8; read-out: IC50
Sequence (Q9Y5Y9 whole entry, looked up, the tested form may be a part): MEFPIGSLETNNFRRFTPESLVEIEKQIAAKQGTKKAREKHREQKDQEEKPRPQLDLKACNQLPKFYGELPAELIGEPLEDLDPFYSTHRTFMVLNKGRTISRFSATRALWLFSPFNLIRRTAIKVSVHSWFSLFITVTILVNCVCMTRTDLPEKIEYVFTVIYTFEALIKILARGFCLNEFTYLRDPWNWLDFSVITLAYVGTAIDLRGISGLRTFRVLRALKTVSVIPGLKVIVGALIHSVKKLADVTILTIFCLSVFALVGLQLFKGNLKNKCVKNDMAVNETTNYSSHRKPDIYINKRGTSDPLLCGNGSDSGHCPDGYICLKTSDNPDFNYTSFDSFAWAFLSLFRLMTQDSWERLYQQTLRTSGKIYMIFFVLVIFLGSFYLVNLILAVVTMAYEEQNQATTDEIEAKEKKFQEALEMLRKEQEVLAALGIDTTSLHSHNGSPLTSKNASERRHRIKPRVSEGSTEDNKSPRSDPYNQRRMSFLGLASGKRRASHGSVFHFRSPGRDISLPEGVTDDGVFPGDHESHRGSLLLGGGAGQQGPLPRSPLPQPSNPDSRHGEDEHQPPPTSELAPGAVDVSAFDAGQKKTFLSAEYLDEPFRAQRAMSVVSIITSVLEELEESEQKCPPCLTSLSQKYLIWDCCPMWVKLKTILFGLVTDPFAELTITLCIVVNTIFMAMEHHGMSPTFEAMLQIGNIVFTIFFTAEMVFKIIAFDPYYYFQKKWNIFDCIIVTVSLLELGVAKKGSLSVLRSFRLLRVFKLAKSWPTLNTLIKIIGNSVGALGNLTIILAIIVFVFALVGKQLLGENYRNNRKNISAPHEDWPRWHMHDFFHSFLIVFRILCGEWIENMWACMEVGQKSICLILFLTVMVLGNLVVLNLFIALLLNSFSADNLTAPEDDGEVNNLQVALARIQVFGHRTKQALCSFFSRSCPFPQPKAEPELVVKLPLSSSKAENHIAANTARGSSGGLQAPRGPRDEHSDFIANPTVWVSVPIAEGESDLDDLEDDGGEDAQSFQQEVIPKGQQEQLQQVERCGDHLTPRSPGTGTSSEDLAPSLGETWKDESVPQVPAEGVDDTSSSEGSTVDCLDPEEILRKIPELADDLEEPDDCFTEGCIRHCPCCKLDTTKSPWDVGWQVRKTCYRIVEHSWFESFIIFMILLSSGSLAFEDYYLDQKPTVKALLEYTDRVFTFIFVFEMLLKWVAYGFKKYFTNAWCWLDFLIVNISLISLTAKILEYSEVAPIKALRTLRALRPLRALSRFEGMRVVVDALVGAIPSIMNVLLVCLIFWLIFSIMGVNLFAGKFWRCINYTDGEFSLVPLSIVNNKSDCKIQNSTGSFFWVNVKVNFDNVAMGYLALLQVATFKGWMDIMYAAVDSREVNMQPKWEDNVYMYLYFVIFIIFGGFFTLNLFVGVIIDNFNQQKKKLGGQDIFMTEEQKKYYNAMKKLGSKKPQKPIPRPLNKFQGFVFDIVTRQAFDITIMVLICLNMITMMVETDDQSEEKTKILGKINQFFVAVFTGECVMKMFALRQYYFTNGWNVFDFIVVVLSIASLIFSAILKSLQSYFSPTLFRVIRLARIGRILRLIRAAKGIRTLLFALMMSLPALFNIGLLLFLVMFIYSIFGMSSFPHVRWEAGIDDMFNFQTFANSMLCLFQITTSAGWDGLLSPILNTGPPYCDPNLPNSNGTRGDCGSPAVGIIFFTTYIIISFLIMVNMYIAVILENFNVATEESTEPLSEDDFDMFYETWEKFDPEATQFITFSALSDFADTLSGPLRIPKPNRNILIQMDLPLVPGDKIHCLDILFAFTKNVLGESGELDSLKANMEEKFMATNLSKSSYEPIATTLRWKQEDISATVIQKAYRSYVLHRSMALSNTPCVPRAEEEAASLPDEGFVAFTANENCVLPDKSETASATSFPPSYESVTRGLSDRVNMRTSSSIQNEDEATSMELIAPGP
TEST READOUT: IC50 (nM)

- NC(=O)c1ccc(NC(=O)c2c(Oc3ccc(F)c(F)c3F)ccc(C(F)(F)F)c2F)cn1: 570

(P) [2H]C([2H])([2H])Oc1cc(OC(F)(F)F)ccc1Oc1cc(-c2ccc(F)cc2)cc(F)c1C(=O)Nc1ccnc(C(N)=O)c1
(Q) COc1cc(OC(F)(F)F)ccc1Oc1cc(C2CC2)c(C(F)(F)F)nc1C(=O)Nc1ccnc(C(N)=O)c1
(R) COc1cc(C(F)F)ccc1Oc1ccc(C(F)(F)F)c(F)c1C(=O)Nc1ccnc(C(N)=O)c1
-- ask Place the items in sequence of falling IC50. Respond with an ordered listing of the labels, as requested.
-- reply R, Q, P

====

target: human NaV 1.8 (Homo sapiens); test: E-VIPR assay for detecting and measuring NaV inhibition properties; format: cell-based; conditions: E-VIPR assay conducted in the presence of human serum; HEK cells expressing truncated human NaV 1.8; read-out: IC50
pIC50: −log10 of the molar value.
TEST READOUT: pIC50

Please review the entries below; each comes with its answer.
* CCOc1ccc(Oc2ccc(C(F)(F)F)c(F)c2C(=O)Nc2ccnc(C(N)=O)c2)cc1 | 6.82
* CCOc1cc(OC(F)(F)F)ccc1Oc1ccc(C(F)(F)F)c(F)c1C(=O)Nc1ccnc(C(N)=O)c1 | 8.24
* [2H]C([2H])([2H])Oc1cc(OC(F)(F)F)ccc1Oc1cc(C2=CCCCC2)cc(F)c1C(=O)Nc1ccnc(C(N)=O)c1 | 7.72

(a) [2H]C([2H])([2H])Oc1cc(OC(F)(F)F)ccc1Oc1cc(C2CCC(F)(F)CC2)cc(F)c1C(=O)Nc1ccnc(C(N)=O)c1
(b) NC(=O)c1cc(NC(=O)c2c(Oc3ccc(OC(F)(F)F)c(F)c3Cl)ccc(C(F)(F)F)c2F)ccn1
(c) COc1cc(OC(F)(F)F)ccc1Oc1ccc(C(F)(F)F)c(OCCC2CC2)c1C(=O)Nc1ccnc(C(N)=O)c1
-- ask Place the items in sequence of falling pIC50. Respond with an ordered listing of the labels, as requested.
-- reply b, a, c
(b: 8.01, a: 7.64, c: 6.23)

====

target: human NaV 1.8 (Homo sapiens, UniProt Q9Y5Y9); assay: E-VIPR assay for detecting and measuring NaV inhibition properties; type: cell-based; conditions: E-VIPR assay conducted in the presence of human serum; HEK cells expressing truncated human NaV 1.8; read-out: IC50
TEST READOUT: IC50 (nM)

- Cc1c(C(F)(F)F)ccc(Oc2ccc(F)c(Cl)c2)c1C(=O)Nc1ccnc(C(N)=O)c1 [Compound 127]: 150
- Cc1c(C(F)(F)F)ccc(Oc2ccc(OC(F)(F)F)cc2C2CC2)c1C(=O)Nc1ccc(C(N)=O)nc1 [Compound 226]: 140
- Cc1c(C(F)(F)F)ccc(Oc2ccc(OC(C)C)c(Cl)c2)c1C(=O)Nc1ccnc(C(N)=O)c1 [Compound 124]: 16
- NC(=O)c1cc(NC(=O)c2c(Oc3ccc(F)c4c3OCC4)ccc(C(F)(F)F)c2F)ccn1 [Compound 30]: 43
- Cc1cnc(C(N)=O)cc1NC(=O)c1c(Oc2ccc(OC(F)(F)F)c(F)c2C)ccc(C(F)(F)F)c1F [Compound 291]: 12.8

(A) COc1cc(OC(F)(F)F)ccc1Oc1ccc(F)c(F)c1C(=O)Nc1ccnc(C(N)=O)c1 [Compound 259]
(B) Cc1c(C(F)(F)F)ccc(Oc2ccc(Cl)cc2F)c1C(=O)Nc1ccnc(C(N)=O)c1 [Compound 135]
(C) COc1cc(OC(F)(F)F)ccc1Oc1cc(C2=CC3CCC2C3)cc(F)c1C(=O)Nc1ccnc(C(N)=O)c1 (stereo not drawn) [Compound 1014]
(D) COc1c(Oc2cc(C(F)(F)F)c(OC)c(F)c2C(=O)Nc2ccc(C(N)=O)nc2)ccc(F)c1F [Compound 377]
-- ask Place the items in sequence of falling IC50. Respond with an ordered listing of the labels, as requested.
-- reply B, A, C, D
